Target: androgen receptor (Rattus norvegicus (Rat), UniProt P15207)
Sequence (P15207 whole entry, looked up): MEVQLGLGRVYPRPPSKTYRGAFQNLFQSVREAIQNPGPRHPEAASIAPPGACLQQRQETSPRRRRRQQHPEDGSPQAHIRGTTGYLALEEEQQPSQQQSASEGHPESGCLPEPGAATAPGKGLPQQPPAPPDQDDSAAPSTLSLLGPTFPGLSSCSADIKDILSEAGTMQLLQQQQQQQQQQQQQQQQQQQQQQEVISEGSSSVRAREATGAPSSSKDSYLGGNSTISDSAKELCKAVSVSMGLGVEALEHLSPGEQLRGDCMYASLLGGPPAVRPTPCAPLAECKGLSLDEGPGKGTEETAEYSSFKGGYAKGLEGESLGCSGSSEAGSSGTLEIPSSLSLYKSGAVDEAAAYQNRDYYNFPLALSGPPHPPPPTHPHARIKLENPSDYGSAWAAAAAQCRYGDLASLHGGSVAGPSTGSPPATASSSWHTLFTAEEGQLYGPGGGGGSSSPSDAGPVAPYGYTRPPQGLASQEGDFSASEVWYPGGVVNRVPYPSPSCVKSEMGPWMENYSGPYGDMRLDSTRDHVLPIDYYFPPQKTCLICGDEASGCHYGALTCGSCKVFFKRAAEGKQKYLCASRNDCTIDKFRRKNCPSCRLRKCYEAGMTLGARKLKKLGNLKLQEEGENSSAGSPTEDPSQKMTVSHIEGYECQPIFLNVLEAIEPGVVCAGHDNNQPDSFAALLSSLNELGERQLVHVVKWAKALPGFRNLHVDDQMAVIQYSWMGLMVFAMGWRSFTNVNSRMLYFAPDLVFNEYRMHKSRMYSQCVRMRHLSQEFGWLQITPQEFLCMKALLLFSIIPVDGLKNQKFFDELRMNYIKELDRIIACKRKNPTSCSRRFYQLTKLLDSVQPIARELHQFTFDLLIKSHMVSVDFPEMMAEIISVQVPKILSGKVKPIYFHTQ
Assay: androgen receptor binding assay (fluorescence polarization, AR-Fluormone complex)
Measured Quantity: pIC50
Answers are plain numbers, as −log10 of the molar value.

Molecular String: Cc1c(N[C@@H](c2nnc(-c3ccc(OS(N)(=O)=O)cc3)o2)[C@H](C)O)ccc(C#N)c1Cl
Test Value: 7.60

Batch request: pIC50 for each of the following compounds.
1. CCC(=O)O[C@@H](C)[C@@H](Nc1ccc(C#N)c(Cl)c1C)c1nnc(-c2ccc(C#N)cc2)o1
2. C[C@H](O)[C@@H](Nc1ccc(C#N)c2scc(Cl)c12)c1nnc(-c2ccc(C#N)cc2)o1
3. Cc1c(N[C@@H](c2nnc(-c3ccc4[nH]ccc4c3)o2)[C@H](C)O)ccc(C#N)c1Cl

Out:
1. 6.92
2. 9.00
3. 7.10

This collection of values is drawn from patent US8629167B2.
